molecular target: human Cot catalytic domain (30-397 amino acids) (Homo sapiens, UniProt P41279); construct: Purified recombinant human Cot catalytic domain (30-397 amino acids) was purchased from Cama Biosciences; purchased Cama Biosciences (so in the source); assay: High Throughput Cot Biochemical Assay (KinEASE TR-FRET); details: Cot biochemical HTRF (KinEASE TR-FRET) assay; read-out: IC50 HTRF
Sequence (P41279 30-397): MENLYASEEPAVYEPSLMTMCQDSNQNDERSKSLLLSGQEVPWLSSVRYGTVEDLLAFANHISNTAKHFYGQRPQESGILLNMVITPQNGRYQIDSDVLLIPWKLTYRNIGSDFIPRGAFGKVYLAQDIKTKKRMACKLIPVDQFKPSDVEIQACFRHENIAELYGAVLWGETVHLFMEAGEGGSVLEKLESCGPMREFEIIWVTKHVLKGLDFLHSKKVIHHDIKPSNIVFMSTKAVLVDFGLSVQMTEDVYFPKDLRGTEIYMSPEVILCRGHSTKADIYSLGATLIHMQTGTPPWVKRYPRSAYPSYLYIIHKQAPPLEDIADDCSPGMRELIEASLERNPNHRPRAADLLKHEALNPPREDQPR
Parameter: pIC50. Scope: all listed entries.
In textbook form, pIC50 equals minus log to base ten of the concentration in mol/L.

CC(C)(C)N1CCC(n2cc([C@@H](Nc3cc(Cl)c4ncc(C#N)c(Nc5cc(Cl)c(Cl)cc5F)c4c3)c3ccc(Cl)cc3)nn2)CC1 [Example 664]: 6.42

Query :: Fill blank: measured pIC50 of the compound N#Cc1cnc2c(Cl)cc(N[C@@H](c3ccc(F)cc3)c3cn(C4CCN(CC(F)(F)F)CC4)nn3)cc2c1Nc1ccc(F)c(Cl)c1 [Example 828] is ____.
Result :: 6.53

Query :: Fill blank: measured pIC50 of the compound CC(C)(C)N1CCC(n2cc([C@@H](Nc3cc(Cl)c4ncc(C#N)c(Nc5ccc(OCc6ccccc6)c(Cl)c5)c4c3)c3ccc(Cl)cc3)nn2)CC1 [Example 654] is ____.
Result :: 5.69

* * *

test system: TNFα production in LPS-stimulated human monocytes; experiment: Cot Monocyte TNFα Cell Based Assay; conditions: Homo sapiens, Monocyte, LPS-stimulated human monocytes, TNFα TR-FRET; read-out: EC50 TNF
Values of EC50 strictly less than 100 nM map to T, and values of at least 100 nM map to F.

Reference set, count: 5
Cc1c([C@H](Nc2cc(C#N)c3ncc(C#N)c(NCC(C)(C)C)c3c2)c2cn(C3(C(F)(F)F)CC3)nn2)cccc1-n1cnnn1: F
CC(C)(C)CNc1c(C#N)cnc2c(F)cc(N[C@H](c3cn(C4(C(N)=O)CC4)nn3)c3ccccc3Cl)cc12: F
Cc1c(C#N)cccc1[C@H](Nc1cc(Cl)c2ncc(C#N)c(NCC(C)(C)C(F)(F)F)c2c1)c1cn([C@@H](C)CF)nn1: T
N#CCC[C@@H](Nc1c(C#N)cnc2c(C#N)cc(N[C@@H](c3ccccc3)c3cn(C4(C#N)CC4)nn3)cc12)c1ccccc1: T
Cc1cc(C#N)ccc1[C@H](Nc1cc(C#N)c2ncc(C#N)c(NCC(C)(C)C)c2c1)c1cn(C2(C(F)(F)F)CC2)nn1: F

As a next step, examine the compound that follows.
Query :: Record `[2H][C@@](Nc1cc(Cl)c2ncc(C#N)c(NCC(C)(C)C)c2c1)(c1cn(C2(C)CC2)nn1)c1c(F)cccc1Cl` : is its EC50 strictly below 100 nM?
Result :: F

* * *

molecular target: human Cot catalytic domain (30-397 amino acids) (Homo sapiens, UniProt P41279); construct: Purified recombinant human Cot catalytic domain (30-397 amino acids) was purchased from Cama Biosciences; purchased Cama Biosciences (so in the source); assay: High Throughput Cot Biochemical Assay (KinEASE TR-FRET); details: Cot KinEASE TR-FRET (HTRF) biochemical assay, 400 μM ATP; read-out: IC50 HTRF
Records here are stratified by IC50; strata: lo (below 8 nM), mid (8 nM to below 60 nM), hi (60 nM or more)

Reference set, count: 5
[2H][C@](Nc1cc(Cl)c2ncc(C#N)c(N[C@H](CC)c3ccccc3)c2c1)(c1ccc(F)cc1)c1cn(C(C)(C)C)nn1: mid
[2H][C@](Nc1cc(Cl)c2ncc(C#N)c(Nc3cnc(F)c(F)c3)c2c1)(c1ccc(F)cc1)c1c[nH]nn1: mid
CC(C)(C)CNc1c(C#N)cnc2c(Cl)cc(N[C@H](c3cn(C4CC4)nn3)c3ccc(F)cc3Cl)cc12: mid
[2H][C@@](Nc1cc(Cl)c2ncc(C#N)c(NC3(c4ccccc4)CC3)c2c1)(c1cn(C2CC2)nn1)c1ccccc1Cl: hi
CC[C@@H](Nc1c(C#N)cnc2c(Cl)cc(N[C@H](c3cn(C4(C#N)CC4)nn3)c3ccccc3Cl)cc12)c1ccccc1: mid

Query :: # bin lookup: classify [2H]C(Nc1cc(Cl)c2ncc(C#N)c(NCC(C)(C)C)c2c1)(c1cn(CC(N)=O)nn1)c1ccccc1Cl (centres unmarked) by its IC50
Result :: lo

Query :: # bin lookup: classify `[2H][C@](Nc1cc(Cl)c2ncc(C#N)c(N[C@@H]3CCC[C@H](O)C3)c2c1)(c1ccc(F)cc1)c1cn(C2CC2)nn1` by its IC50
Result :: hi

Query :: # bin lookup: classify `[2H][C@](Nc1cc(I)c2ncc(C#N)c(NCC(C)(C)C)c2c1)(c1ccc(F)cc1)c1cn(C2CC2)nn1` by its IC50
Result :: mid

Query :: # bin lookup: classify [2H]C(Nc1cc(Cl)c2ncc(C#N)c(NC3CC4CCCC(C4)C3)c2c1)(c1ccc(F)cc1)c1cn(C2CC2)nn1 (stereo in doubt) by its IC50
Result :: hi

Query :: # bin lookup: classify `[2H][C@](Nc1cc(Cl)c2ncc(C#N)c(NCC(C)(C)COC)c2c1)(c1ccc(F)cc1)c1cn(C2CC2)nn1` by its IC50
Result :: mid

Query :: # bin lookup: classify `[2H][C@@](Nc1cc(C#N)c2ncc(C#N)c(NCC(C)(C)C)c2c1)(c1cn(C2CC2)nn1)c1ccccc1Cl` by its IC50
Result :: lo

Query :: # bin lookup: classify `[2H][C@](Nc1cc(C(C)=O)c2ncc(C#N)c(NCC(C)(C)C)c2c1)(c1ccc(F)cc1)c1cn(C2CC2)nn1` by its IC50
Result :: lo

Query :: # bin lookup: classify `CC(C)(C)CNc1c(C#N)cnc2c(C#N)cc(N[C@@H](c3cccc(C(=O)N4CC(F)C4)c3)c3cn(C4CC4)nn3)cc12` by its IC50
Result :: lo

Query :: # bin lookup: classify `Cn1ccnc1-c1cccc([C@H](Nc2cc(Cl)c3ncc(C#N)c(Nc4cnc(F)c(F)c4)c3c2)c2c[nH]nn2)c1` by its IC50
Result :: lo

Query :: # bin lookup: classify `[2H][C@](Nc1cc(C)c2ncc(C#N)c(NCC(C)(C)C)c2c1)(c1ccc(F)cc1)c1cn(C2CC2)nn1` by its IC50
Result :: hi

Query :: # bin lookup: classify `CC(C)(C)CNc1c(C#N)cnc2c(Cl)cc(N[C@H](c3cn(C4CC4)nn3)c3ccccc3CO)cc12` by its IC50
Result :: lo

Query :: # bin lookup: classify `[2H][C@](Nc1cc(-c2ccc(F)nc2)c2ncc(C#N)c(NCC(C)(C)C)c2c1)(c1ccc(F)cc1)c1cn(C2CC2)nn1` by its IC50
Result :: mid

Query :: # bin lookup: classify [2H][C@@](Nc1cc(Cl)c2ncc(C#N)c(NC3CCOCC3(C)C)c2c1)(c1cn(C2CC2)nn1)c1ccccc1Cl (some centres unmarked) by its IC50
Result :: lo

Query :: # bin lookup: classify `COCCN1CCC(n2cc([C@@H](Nc3cc(Cl)c4ncc(C#N)c(Nc5ccc(F)c(Cl)c5)c4c3)c3ccc(F)cc3)nn2)CC1` by its IC50
Result :: mid

Query :: # bin lookup: classify `[2H][C@](Nc1cc(Cl)c2ncc(C#N)c(N[C@H](CC)c3ccccc3)c2c1)(c1cccc(C#N)c1)c1cnnn1C1CC1` by its IC50
Result :: hi

Query :: # bin lookup: classify `[2H][C@@](Nc1cc(Cl)c2ncc(C#N)c(N[C@H](CC)c3ccccc3)c2c1)(c1cn(C2CC2)nn1)c1ccccc1Cl` by its IC50
Result :: mid

Query :: # bin lookup: classify `[2H][C@](Nc1cc(Cl)c2ncc(C#N)c(NC3(C)CC3)c2c1)(c1ccc(F)cc1)c1cn(C2CC2)nn1` by its IC50
Result :: hi

Query :: # bin lookup: classify `N#Cc1cnc2c(Cl)cc(N[C@@H](c3ccc(F)cc3)c3cn(-c4ccncc4)nn3)cc2c1Nc1cnc(F)c(F)c1` by its IC50
Result :: hi

Query :: # bin lookup: classify `[2H][C@@](Nc1cc(Cl)c2ncc(C#N)c(NCC(C)(C)C)c2c1)(c1cn(C2CC2)nn1)c1cccc(C#N)c1C` by its IC50
Result :: lo

* * *

Parameter: pEC50. Scope: all listed entries.
test system: TNFα production in LPS-stimulated human monocytes; assay: Cot Monocyte TNFα Cell Based Assay; conditions: TNFα in LPS-stimulated human monocytes; read-out: EC50 TNF
In textbook form, pEC50 equals minus log to base ten of the concentration in mol/L.

CC(C)(C)N1CCC(n2cc([C@@H](Nc3cc(Cl)c4ncc(C#N)c(NC5CCCC(O)C5)c4c3)c3ccc(F)cc3)nn2)CC1 (stereo partly shown) [Example 441]: 5.23

Alright, here's another compound for you.
Query :: Fill blank: measured pEC50 of the compound CC(C)(C)N1CCC(n2cc([C@@H](Nc3cc(Cl)c4ncc(C#N)c(NC5CCCC(O)C5)c4c3)c3ccc(F)cc3)nn2)CC1 (stereo partly shown) [Example 440] is ____.
Result :: 6.43
